- test_system: NR2D (Homo sapiens)
- Sequence (O15399 28-1336, species assumed, other chains not shown): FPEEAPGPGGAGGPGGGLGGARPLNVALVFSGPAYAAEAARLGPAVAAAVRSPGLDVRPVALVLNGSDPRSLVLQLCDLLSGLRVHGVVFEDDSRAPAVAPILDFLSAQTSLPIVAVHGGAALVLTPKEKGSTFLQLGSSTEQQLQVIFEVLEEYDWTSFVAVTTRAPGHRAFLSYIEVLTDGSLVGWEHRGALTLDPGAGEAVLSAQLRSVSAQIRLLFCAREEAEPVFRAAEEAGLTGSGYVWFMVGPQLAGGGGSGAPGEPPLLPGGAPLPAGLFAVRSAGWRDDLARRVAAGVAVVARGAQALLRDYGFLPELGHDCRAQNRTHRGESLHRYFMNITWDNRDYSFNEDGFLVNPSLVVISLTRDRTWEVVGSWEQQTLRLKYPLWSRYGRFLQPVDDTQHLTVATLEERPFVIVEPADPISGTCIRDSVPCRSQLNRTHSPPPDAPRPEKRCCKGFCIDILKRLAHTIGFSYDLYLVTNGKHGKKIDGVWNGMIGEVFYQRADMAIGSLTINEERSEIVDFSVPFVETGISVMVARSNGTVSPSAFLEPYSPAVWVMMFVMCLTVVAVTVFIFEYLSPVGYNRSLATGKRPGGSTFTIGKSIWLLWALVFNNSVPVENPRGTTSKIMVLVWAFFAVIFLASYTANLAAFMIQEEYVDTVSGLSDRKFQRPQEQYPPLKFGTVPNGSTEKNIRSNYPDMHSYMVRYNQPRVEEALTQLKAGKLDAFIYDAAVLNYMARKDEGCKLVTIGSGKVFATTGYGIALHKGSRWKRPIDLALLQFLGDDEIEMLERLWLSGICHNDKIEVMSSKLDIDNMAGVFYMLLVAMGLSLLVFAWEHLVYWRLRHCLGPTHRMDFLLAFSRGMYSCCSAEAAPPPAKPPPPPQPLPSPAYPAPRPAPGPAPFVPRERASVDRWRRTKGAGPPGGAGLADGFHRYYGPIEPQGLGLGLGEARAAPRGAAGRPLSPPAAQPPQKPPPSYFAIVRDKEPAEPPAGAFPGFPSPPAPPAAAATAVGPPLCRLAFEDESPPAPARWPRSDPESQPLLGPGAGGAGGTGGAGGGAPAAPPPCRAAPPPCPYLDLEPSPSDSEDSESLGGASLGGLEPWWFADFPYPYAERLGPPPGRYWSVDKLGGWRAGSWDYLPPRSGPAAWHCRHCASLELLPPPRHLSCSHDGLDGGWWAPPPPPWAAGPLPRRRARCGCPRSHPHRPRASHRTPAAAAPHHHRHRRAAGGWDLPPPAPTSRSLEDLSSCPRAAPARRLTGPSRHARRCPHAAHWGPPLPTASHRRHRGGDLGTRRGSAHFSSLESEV
- experiment: Potentiation of [3H]MK-801 binding, wild-type NMDAR2D
- Parameters: species or system rat
- run_conditions: relative to 1 mM glycine
metric_name: NMDAR2D BINDING PROFILE % 1 mM Glycine (%)
Answer with a number only, understood to be in %.

smiles_record: C[C@@H](O)[C@@H](C(N)=O)N1C[C@]2(CCCN2S(C)(=O)=O)C1=O
test_system: NR2D (Homo sapiens)
reading_unit: %
NMDAR2D BINDING PROFILE % 1 mM Glycine: 52

smiles_record: C[C@@H](O)[C@@H](C(N)=O)N1C[C@@]2(CCCN2C(=O)OC(C)(C)C)C1=O
test_system: NR2D (Homo sapiens)
reading_unit: %
NMDAR2D BINDING PROFILE % 1 mM Glycine: 93.58

smiles_record: C[C@@H](O)[C@@H](C(N)=O)N1C[C@@]2(CCCN2S(C)(=O)=O)C1=O
test_system: NR2D (Homo sapiens)
reading_unit: %
NMDAR2D BINDING PROFILE % 1 mM Glycine: 57.41

Enquiry: For CC(C)C(=O)N1CCC[C@]12CN([C@H](C(N)=O)[C@@H](C)O)C2=O , write its NMDAR2D BINDING PROFILE % 1 mM Glycine.
Return: 54.85

Enquiry: For C[C@@H](O)[C@@H](C(N)=O)N1C[C@]2(CCCN2C(=O)OC(C)(C)C)C1=O , write its NMDAR2D BINDING PROFILE % 1 mM Glycine.
Return: 66.72

Enquiry: For CC(C)C(=O)N1CCC[C@@]12CN([C@H](C(N)=O)[C@@H](C)O)C2=O , write its NMDAR2D BINDING PROFILE % 1 mM Glycine.
Return: 65.32

---

- experiment: Bioavailability and CSF/brain/plasma exposure after PO administration
- Type: in vivo, Sprague Dawley rats
- run_conditions: rat, plasma; PO administration (10 mg/kg PO, 2 mg/kg IV), male Sprague Dawley rats; read-out: Bioavailablity (% F)
metric_name: bioavailability (%)
Answer with a number only, understood to be in %.

smiles_record: C[C@@H](O)[C@@H](C(N)=O)N1C[C@]2(CCCN2S(C)(=O)=O)C1=O
bioavailability [%]: 29

Enquiry: For C[C@@H](O)[C@@H](C(N)=O)N1C[C@@]2(CCCN2S(C)(=O)=O)C1=O , write its bioavailability.
Return: 82

---

- experiment: Bioavailability and CSF/brain/plasma exposure after PO administration
- Assay type: in vivo, Sprague Dawley rats
- run_conditions: male, Sprague Dawley, rat, brain; 10 mg/kg PO; read-out: Brain/plasma ratio
- Protocol: The bioavailablity of Compound BB was investigated following PO administration. CSF, brain and plasma samples were analyzed following dosing with compound BB (10 mg/kg). The following table indicates the bioavailablity and CSF/plasma and brain/plasma ratios. Sprague Dawley rats were dosed intravenously with 2 mg/kg of Compound AA. […] Plasma samples were drawn over a 24 h period and analyzed for Compound AA. […] In another experiment. […] Plasma samples were drawn over a 24 h period and analyzed for Compound BB. […]
metric_name: Kp
// keep it numeric: no unit symbol after the value

Enquiry: For C[C@@H](O)[C@@H](C(N)=O)N1C[C@@]2(CCCN2S(C)(=O)=O)C1=O , write its Kp.
Return: 0.12

---

Each entry below lists one item and its recorded NMDAR2A BINDING PROFILE % 1 mM Glycine value.
- test_system: NR2A (Homo sapiens)
- Sequence (Q12879 23-1464, species assumed, other chains not shown): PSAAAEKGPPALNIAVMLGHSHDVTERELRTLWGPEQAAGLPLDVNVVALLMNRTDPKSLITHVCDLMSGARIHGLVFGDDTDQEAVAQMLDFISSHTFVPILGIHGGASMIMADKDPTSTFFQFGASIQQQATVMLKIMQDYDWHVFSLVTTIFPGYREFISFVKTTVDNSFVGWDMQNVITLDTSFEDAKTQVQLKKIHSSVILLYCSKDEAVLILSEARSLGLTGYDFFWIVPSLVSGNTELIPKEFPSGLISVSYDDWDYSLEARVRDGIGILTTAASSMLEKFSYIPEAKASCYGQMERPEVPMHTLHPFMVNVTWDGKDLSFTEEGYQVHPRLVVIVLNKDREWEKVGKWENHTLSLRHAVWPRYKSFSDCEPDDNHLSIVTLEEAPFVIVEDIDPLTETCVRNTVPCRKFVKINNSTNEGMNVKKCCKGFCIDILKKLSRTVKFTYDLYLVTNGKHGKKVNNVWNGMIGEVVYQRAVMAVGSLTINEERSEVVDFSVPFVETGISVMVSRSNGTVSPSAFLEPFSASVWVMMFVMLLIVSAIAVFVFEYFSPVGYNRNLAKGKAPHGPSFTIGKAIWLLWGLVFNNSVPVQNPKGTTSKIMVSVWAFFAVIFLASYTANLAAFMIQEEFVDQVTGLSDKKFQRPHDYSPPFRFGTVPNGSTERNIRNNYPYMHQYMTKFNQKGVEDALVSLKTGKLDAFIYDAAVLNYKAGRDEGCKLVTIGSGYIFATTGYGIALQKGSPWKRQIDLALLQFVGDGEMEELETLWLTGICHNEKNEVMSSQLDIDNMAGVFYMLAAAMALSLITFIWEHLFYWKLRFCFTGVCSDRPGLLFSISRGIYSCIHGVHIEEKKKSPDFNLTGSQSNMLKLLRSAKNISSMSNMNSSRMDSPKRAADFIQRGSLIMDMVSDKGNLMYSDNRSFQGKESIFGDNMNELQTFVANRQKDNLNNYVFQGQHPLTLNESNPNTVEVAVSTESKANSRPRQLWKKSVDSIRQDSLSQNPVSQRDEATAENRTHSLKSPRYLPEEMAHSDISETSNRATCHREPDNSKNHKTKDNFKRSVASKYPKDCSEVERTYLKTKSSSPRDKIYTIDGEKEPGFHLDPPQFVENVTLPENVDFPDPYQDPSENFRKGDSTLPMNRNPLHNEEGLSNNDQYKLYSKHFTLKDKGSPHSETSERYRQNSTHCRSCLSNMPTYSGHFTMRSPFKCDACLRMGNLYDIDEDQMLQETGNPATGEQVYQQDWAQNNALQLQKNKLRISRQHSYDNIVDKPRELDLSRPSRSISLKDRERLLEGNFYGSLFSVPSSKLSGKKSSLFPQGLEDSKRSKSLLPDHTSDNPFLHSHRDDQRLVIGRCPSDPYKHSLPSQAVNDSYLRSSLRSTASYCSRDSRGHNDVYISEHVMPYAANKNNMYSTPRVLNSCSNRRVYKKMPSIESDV
- experiment: Potentiation of [3H]MK-801 binding, wild-type NMDAR2A
- Set-up: species or system rat
- run_conditions: relative to 1 mM glycine

Check out these entries, answers already filled in.
smiles_record: C[C@@H](O)[C@@H](C(N)=O)N1C[C@@]2(CCCN2S(C)(=O)=O)C1=O
NMDAR2A BINDING PROFILE % 1 mM Glycine: 0%
--
smiles_record: CC(C)C(=O)N1CCC[C@@]12CN([C@H](C(N)=O)[C@@H](C)O)C2=O
NMDAR2A BINDING PROFILE % 1 mM Glycine: 42.5%
--
smiles_record: C[C@@H](O)[C@@H](C(N)=O)N1C[C@]2(CCCN2S(C)(=O)=O)C1=O
NMDAR2A BINDING PROFILE % 1 mM Glycine: 38.8%

Enquiry: For CC(C)C(=O)N1CCC[C@]12CN([C@H](C(N)=O)[C@@H](C)O)C2=O , write its NMDAR2A BINDING PROFILE % 1 mM Glycine.
Return: 61.76%

Enquiry: For C[C@@H](O)[C@@H](C(N)=O)N1C[C@@]2(CCCN2C(=O)OC(C)(C)C)C1=O , write its NMDAR2A BINDING PROFILE % 1 mM Glycine.
Return: 41.04%

Enquiry: For C[C@@H](O)[C@@H](C(N)=O)N1C[C@]2(CCCN2C(=O)OC(C)(C)C)C1=O , write its NMDAR2A BINDING PROFILE % 1 mM Glycine.
Return: 18.33%

---

- test_system: NR2D (Homo sapiens)
- experiment: Potentiation of [3H]MK-801 binding, wild-type NMDAR2D
- Design: species or system rat
- run_conditions: wild-type NMDAR2D; read-out: NMDAR2D BINDING PROFILE −logEC50 (converted)
metric_name: log10(EC50) (log10 of the value in nM)
Each number you see is log10 of EC50, and the unit inside the log is nM.

Check out these entries, answers already filled in.
smiles_record: CC(C)C(=O)N1CCC[C@@]12CN([C@H](C(N)=O)[C@@H](C)O)C2=O
log10(EC50): -2.22
//
smiles_record: C[C@@H](O)[C@@H](C(N)=O)N1C[C@]2(CCCN2S(C)(=O)=O)C1=O
log10(EC50): -1.80
//
smiles_record: C[C@@H](O)[C@@H](C(N)=O)N1C[C@@]2(CCCN2C(=O)OC(C)(C)C)C1=O
log10(EC50): -2.88

Enquiry: For C[C@@H](O)[C@@H](C(N)=O)N1C[C@@]2(CCCN2S(C)(=O)=O)C1=O , write its log10(EC50).
Return: -1.25

Enquiry: For C[C@@H](O)[C@@H](C(N)=O)N1C[C@]2(CCCN2C(=O)OC(C)(C)C)C1=O , write its log10(EC50).
Return: -2.15

Enquiry: For CC(C)C(=O)N1CCC[C@]12CN([C@H](C(N)=O)[C@@H](C)O)C2=O , write its log10(EC50).
Return: -1.00

---

- experiment: Plasma protein binding assay, human
- Format: in vitro ADME
- run_conditions: read-out: Plasma Protein binding (% Bound) Plasma human (converted)
- Method: Bound drug concentration in the brain was also investigated, and plasma protein binding assays were conducted. The following table (% bound) indicates results for Compound AA and Compound BB.
metric_name: fraction unbound
// keep it numeric: no unit symbol after the value

Enquiry: For C[C@@H](O)[C@@H](C(N)=O)N1C[C@@]2(CCCN2S(C)(=O)=O)C1=O [Compound BB] , write its fraction unbound.
Return: 0.789

---

- test_system: NR2C (Homo sapiens, UniProt Q14957)
- experiment: Potentiation of [3H]MK-801 binding, wild-type NMDAR2C
- Set-up: species or system rat
- run_conditions: relative to 1 mM glycine
Threshold check on NMDAR2C BINDING PROFILE % 1 mM Glycine: strictly below 60% is yes; on or above 60% is no.

smiles_record: C[C@@H](O)[C@@H](C(N)=O)N1C[C@]2(CCCN2C(=O)OC(C)(C)C)C1=O
cat: no

Would you kindly look at the next entry?
Enquiry: Field: below-cutoff. Rule: recorded NMDAR2C BINDING PROFILE % 1 mM Glycine strictly less than 60%. Subject: C[C@@H](O)[C@@H](C(N)=O)N1C[C@]2(CCCN2S(C)(=O)=O)C1=O
Return: no

---

Each entry below lists one item and its recorded NMDAR2B BINDING PROFILE % 1 mM Glycine value.
- test_system: NR2B (Homo sapiens, UniProt Q13224)
- Sequence (Q13224 27-1484, species assumed, other chains not shown): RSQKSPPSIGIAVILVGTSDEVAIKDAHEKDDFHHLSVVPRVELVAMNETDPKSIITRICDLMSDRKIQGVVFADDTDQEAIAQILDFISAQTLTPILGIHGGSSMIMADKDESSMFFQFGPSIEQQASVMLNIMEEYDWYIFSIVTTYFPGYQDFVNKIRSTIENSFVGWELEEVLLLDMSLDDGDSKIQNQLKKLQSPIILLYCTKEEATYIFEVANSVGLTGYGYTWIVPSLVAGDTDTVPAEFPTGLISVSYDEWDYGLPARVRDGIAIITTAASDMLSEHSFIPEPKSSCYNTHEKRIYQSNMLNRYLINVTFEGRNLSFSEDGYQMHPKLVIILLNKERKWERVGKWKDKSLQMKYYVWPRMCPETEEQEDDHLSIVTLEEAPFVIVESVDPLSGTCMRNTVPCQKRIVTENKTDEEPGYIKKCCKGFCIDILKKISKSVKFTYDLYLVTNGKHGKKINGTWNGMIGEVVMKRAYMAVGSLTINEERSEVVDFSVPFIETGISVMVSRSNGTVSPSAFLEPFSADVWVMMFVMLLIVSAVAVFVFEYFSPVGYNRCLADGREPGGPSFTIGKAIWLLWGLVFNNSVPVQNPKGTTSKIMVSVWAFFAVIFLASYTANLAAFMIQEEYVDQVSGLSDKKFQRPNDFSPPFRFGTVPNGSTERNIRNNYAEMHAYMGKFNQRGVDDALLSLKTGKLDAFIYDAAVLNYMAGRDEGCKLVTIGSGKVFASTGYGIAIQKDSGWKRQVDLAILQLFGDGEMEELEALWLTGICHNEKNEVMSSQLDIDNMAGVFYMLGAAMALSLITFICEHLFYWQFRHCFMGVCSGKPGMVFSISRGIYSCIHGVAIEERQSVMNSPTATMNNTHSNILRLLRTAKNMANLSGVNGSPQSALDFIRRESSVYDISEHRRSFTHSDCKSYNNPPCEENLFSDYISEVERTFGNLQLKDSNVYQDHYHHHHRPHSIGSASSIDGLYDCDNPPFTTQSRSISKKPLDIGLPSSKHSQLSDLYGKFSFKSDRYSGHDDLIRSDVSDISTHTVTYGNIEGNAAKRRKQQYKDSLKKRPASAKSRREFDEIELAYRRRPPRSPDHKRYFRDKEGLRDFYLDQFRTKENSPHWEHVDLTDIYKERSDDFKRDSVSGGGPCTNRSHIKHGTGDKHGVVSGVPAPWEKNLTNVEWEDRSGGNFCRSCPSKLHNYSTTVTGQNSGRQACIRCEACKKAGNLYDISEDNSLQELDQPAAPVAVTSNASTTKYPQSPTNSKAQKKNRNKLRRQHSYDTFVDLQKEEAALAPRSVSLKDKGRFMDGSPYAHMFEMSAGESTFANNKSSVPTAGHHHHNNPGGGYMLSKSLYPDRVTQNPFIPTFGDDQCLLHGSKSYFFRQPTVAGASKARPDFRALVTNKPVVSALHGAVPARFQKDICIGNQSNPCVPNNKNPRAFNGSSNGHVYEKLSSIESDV
- experiment: Potentiation of [3H]MK-801 binding, wild-type NMDAR2B
- Design: species or system rat
- run_conditions: relative to 1 mM glycine
Answer with a number only, understood to be in %.

Check out these entries, answers already filled in.
smiles_record: CC(C)C(=O)N1CCC[C@]12CN([C@H](C(N)=O)[C@@H](C)O)C2=O
reading_unit: %
observed_measurement: 70.74
//
smiles_record: C[C@@H](O)[C@@H](C(N)=O)N1C[C@]2(CCCN2S(C)(=O)=O)C1=O
reading_unit: %
observed_measurement: 0
//
smiles_record: C[C@@H](O)[C@@H](C(N)=O)N1C[C@]2(CCCN2C(=O)OC(C)(C)C)C1=O
reading_unit: %
observed_measurement: 53.09
//
smiles_record: C[C@@H](O)[C@@H](C(N)=O)N1C[C@@]2(CCCN2C(=O)OC(C)(C)C)C1=O
reading_unit: %
observed_measurement: 59.55
//
smiles_record: C[C@@H](O)[C@@H](C(N)=O)N1C[C@@]2(CCCN2S(C)(=O)=O)C1=O
reading_unit: %
observed_measurement: 76.3

Enquiry: For CC(C)C(=O)N1CCC[C@@]12CN([C@H](C(N)=O)[C@@H](C)O)C2=O , write its NMDAR2B BINDING PROFILE % 1 mM Glycine.
Return: 70.49
